Measured log10 of Ki values are reported for all entries that follow.
Biological target: mouse TAAR1 (Mus musculus (Mouse), UniProt Q923Y8)
Sequence (Q923Y8 whole entry): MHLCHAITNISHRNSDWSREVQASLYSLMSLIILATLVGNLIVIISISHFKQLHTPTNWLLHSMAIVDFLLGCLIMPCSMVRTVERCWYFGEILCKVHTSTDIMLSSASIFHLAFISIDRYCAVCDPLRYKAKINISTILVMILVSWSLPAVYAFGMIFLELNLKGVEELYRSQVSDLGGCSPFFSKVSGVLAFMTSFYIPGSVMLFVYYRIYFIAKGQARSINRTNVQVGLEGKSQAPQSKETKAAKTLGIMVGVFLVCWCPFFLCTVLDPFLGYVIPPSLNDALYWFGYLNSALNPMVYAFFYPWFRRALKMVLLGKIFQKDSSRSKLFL
Test: Radioligand binding assay on mouse TAAR1
Conditions: mouse TAAR1, membranes of stably transfected HEK-293 cells; first value of cell mouse/rat
Form field - Quantity: Ki; Unit: µM; Scale: log10

Use these answered entries as a reference point.
>  <Compound>
CS(=O)(=O)c1cnc(Nc2ccc(CC[C@H]3COC(N)=N3)cc2)nc1

>  <Target of assay>
mouse TAAR1 (Mus musculus (Mouse), UniProt Q923Y8)

>  <Reported value>
-1.34

$$$$
>  <Compound>
NC1=N[C@@H](CCc2ccc(Nc3ncc(C4CCC4)cn3)cc2)CO1

>  <Target of assay>
mouse TAAR1 (Mus musculus (Mouse), UniProt Q923Y8)

>  <Reported value>
-3.52

$$$$

// assay mouse TAAR1 (Mus musculus (Mouse), UniProt Q923Y8), entry NC1=N[C@@H](CCc2ccc(Nc3cccc4ccccc34)cc2)CO1 , log10 of Ki value = -2.68

Item N#Cc1cnc(Nc2ccc(CC[C@H]3COC(N)=N3)cc2)cn1 was tested on mouse TAAR1 (Mus musculus (Mouse), UniProt Q923Y8); the reported log10 of Ki is -1.89

Hey, mouse TAAR1 (Mus musculus (Mouse), UniProt Q923Y8) data for CCOc1cnc(Nc2ccc(CC[C@H]3COC(N)=N3)cc2)nc1 : log10 of Ki came out at -2.30

Field log10 of Ki (system: mouse TAAR1 (Mus musculus (Mouse), UniProt Q923Y8)) for entry NC1=N[C@@H](CCc2ccc(N[C@@H](c3ccc(Cl)cc3)C(F)(F)F)cc2)CO1 = -1.20

mouse TAAR1 (Mus musculus (Mouse), UniProt Q923Y8) log10 of Ki of NC1=N[C@@H](CCc2ccc(Nc3cccc4cccc(Cl)c34)cc2)CO1 is -1.58

Bench note, mouse TAAR1 (Mus musculus (Mouse), UniProt Q923Y8): entry NC1=N[C@@H](CCc2ccc(NC(c3ccc(Br)cn3)C(F)(F)F)cc2)CO1 (stereo partly drawn) , its log10 of Ki = -1.21

Tested on mouse TAAR1 (Mus musculus (Mouse), UniProt Q923Y8): NC1=N[C@@H](CCc2ccc(Nc3cccc(Cl)n3)cc2)CO1 . Observed log10 of Ki: -3.00

---

Target: mouse TAAR1 (Mus musculus (Mouse), UniProt Q923Y8)
Experiment: Radioligand binding assay on mouse TAAR1
Conditions: mouse TAAR1, membranes of stably transfected HEK-293 cells; first value of cell mouse/rat
Assay metric: Ki (µM)
Give a bare numeral; the unit µM is implied.

Short answer for COc1cccc(C(Nc2ccc(CC[C@H]3COC(N)=N3)cc2)C(F)(F)F)n1 (stereo partly shown) [Example 70] : Ki was 0.134

Looking up Cc1ccc(Nc2ccc(CC[C@H]3COC(N)=N3)cc2)nc1 [Example 29] , I see its Ki listed as 0.0306

Lab note: measured Ki of NC1=N[C@@H](CCc2ccc(Nc3nccnc3Cl)cc2)CO1 [Example 41] was 0.0593

---

Biological target: UniProt Q923Y8
Assay: Radioligand binding assay on mouse TAAR1
Details: mouse TAAR1, membranes of stably transfected HEK-293 cells; first value of cell mouse/rat
Procedure: Construction of TAAR Expression Plasmids and Stably Transfected Cell Lines For the construction of expression plasmids the coding sequences of human, rat and mouse TAAR 1 were amplified from genomic DNA essentially as described by Lindemann et al.. The Expand High Fidelity PCR System (Roche Diagnostics) was used with 1.5 mM Mg^2+ and purified PCR products were cloned into pCR2.1-TOPO cloning vector (Invitrogen) following the instructions of the manufacturer. […]
Simple rule here: Ki less than 0.002 µM is Satisfied, otherwise Not satisfied.

>  <Item smiles>
CCCc1cnc(Nc2ccc(CC[C@H]3COC(N)=N3)cc2)nc1

>  <Discrete label>
Satisfied

$$$$

Note: attention shifts to another entry.
Task: Does the reported Ki of the following molecule sit strictly below 0.002 µM? N#Cc1cncc(Nc2ccc(CC[C@H]3COC(N)=N3)cc2)n1
Output: Not satisfied

---

Target: mouse TAAR1 (Mus musculus (Mouse), UniProt Q923Y8)
Assay: Radioligand binding assay on mouse TAAR1
Conditions: mouse TAAR1, membranes of stably transfected HEK-293 cells; first value of cell mouse/rat
log10(Ki) overview
Kindly note that the scale is log10 and the underlying Ki is in µM.

// CSc1ccnc(Nc2ccc(CC[C@H]3COC(N)=N3)cc2)n1 : log10(Ki) value = -2.11

For reference, reported log10(Ki) for N#Cc1ccc(Nc2ccc(CC[C@H]3COC(N)=N3)cc2)nc1 stands at -2.82

The reported log10(Ki) of the compound NC1=N[C@@H](CCc2ccc(Nc3ncc(C4CC4)cn3)cc2)CO1 was -3.52

log10(Ki) for NC1=N[C@@H](CCc2ccc(Nc3ncc(F)cn3)cc2)CO1 is -1.65

The recorded log10(Ki) for entry NC1=N[C@@H](CCc2ccc(NC(c3cc(Cl)cc(Cl)c3)C(F)(F)F)cc2)CO1 (stereo partly drawn) equals -1.45

Query NC1=N[C@@H](CCc2ccc(Nc3ccc(F)cn3)cc2)CO1 yields log10(Ki) of -2.66

compound NC1=N[C@@H](CCc2ccc(Nc3cccc4cccnc34)cc2)CO1 , log10(Ki) observed: -2.46

Memo: Cc1cnc(Nc2ccc(CC[C@H]3COC(N)=N3)cc2)nc1 , reported log10(Ki): -1.98

Quick note, log10(Ki) for Cc1ccc(Nc2ccc(CC[C@H]3COC(N)=N3)cc2)cc1 landed at -3.10

---

Each record here notes measured log10 of Ki.
Target: mouse TAAR1 (Mus musculus (Mouse))
Experiment: Radioligand binding assay on mouse TAAR1
Settings: mouse TAAR1, membranes of stably transfected HEK-293 cells; first value of cell mouse/rat
Note the log scale: values are log10 of Ki expressed in µM.

>  <Item smiles>
COc1cc(Nc2ccc(CC[C@H]3COC(N)=N3)cc2)ncn1

>  <Target of assay>
mouse TAAR1 (Mus musculus (Mouse))

>  <Assay metric>
log10 of Ki

>  <Reported value>
-2.02

$$$$
>  <Item smiles>
Cc1cc(Nc2ccc(CC[C@H]3COC(N)=N3)cc2)ncn1

>  <Target of assay>
mouse TAAR1 (Mus musculus (Mouse))

>  <Assay metric>
log10 of Ki

>  <Reported value>
-1.74

$$$$
>  <Item smiles>
COc1cnc(Nc2ccc(CC[C@H]3COC(N)=N3)cc2)nc1

>  <Target of assay>
mouse TAAR1 (Mus musculus (Mouse))

>  <Assay metric>
log10 of Ki

>  <Reported value>
-2.15

$$$$
>  <Item smiles>
NC1=N[C@@H](CCc2ccc(Nc3cccc(C(F)(F)F)n3)cc2)CO1

>  <Target of assay>
mouse TAAR1 (Mus musculus (Mouse))

>  <Assay metric>
log10 of Ki

>  <Reported value>
-3.15

$$$$
>  <Item smiles>
COc1nc(Cl)cc(Nc2ccc(CC[C@H]3COC(N)=N3)cc2)n1

>  <Target of assay>
mouse TAAR1 (Mus musculus (Mouse))

>  <Assay metric>
log10 of Ki

>  <Reported value>
-3.00

$$$$

Input Cc1nccc(Nc2ccc(CC[C@H]3COC(N)=N3)cc2)n1 . Output log10 of Ki: -1.41

The value of log10 of Ki measured for the compound Cc1cncc(Nc2ccc(CC[C@H]3COC(N)=N3)cc2)n1 turned out to be -0.97

Reported log10 of Ki ( NC1=N[C@@H](CCc2ccc(Nc3ncc(Cl)cn3)nc2)CO1 ) = -1.86

Looking up Cc1cc(CC[C@H]2COC(N)=N2)ccc1Nc1ncc(Cl)cn1 , I see its log10 of Ki listed as -2.72

log10 of Ki reading for Cc1cc(Nc2ccc(CC[C@H]3COC(N)=N3)cc2)ccc1OC(F)(F)F : -4.00

---

Molecular target: rat TAAR1 (Rattus norvegicus (Rat), UniProt Q923Y9)
Sequence (Q923Y9 whole entry): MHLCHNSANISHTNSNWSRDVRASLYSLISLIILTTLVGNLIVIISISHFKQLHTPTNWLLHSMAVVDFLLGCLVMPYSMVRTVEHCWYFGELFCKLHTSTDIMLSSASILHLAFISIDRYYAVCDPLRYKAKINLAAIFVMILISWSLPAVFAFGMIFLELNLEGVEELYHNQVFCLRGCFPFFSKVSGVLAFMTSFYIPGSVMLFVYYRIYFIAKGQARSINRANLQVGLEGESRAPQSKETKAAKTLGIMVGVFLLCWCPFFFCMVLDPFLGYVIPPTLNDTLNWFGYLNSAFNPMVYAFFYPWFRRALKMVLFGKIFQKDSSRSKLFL
Experiment: Radioligand binding assay on rat TAAR1
Settings: rat TAAR1, membranes of stably transfected HEK-293 cells; second value of cell mouse/rat
Mark label 1 for Ki under 0.0004 µM, label 0 if at or over.

Take a look at these entries with their results.
>  <Compound>
NC1=N[C@@H](CCc2ccc(Nc3ccc(C(F)(F)F)cc3)cc2)CO1 [Example 8]

>  <Discrete label>
label 1

$$$$
>  <Compound>
NC1=N[C@@H](CCc2ccc(Nc3ccc(Cl)cc3F)cc2)CO1 [Example 7]

>  <Discrete label>
label 1

$$$$
>  <Compound>
COc1ccc(Nc2ccc(CC[C@H]3COC(N)=N3)cc2)cc1 [Example 9]

>  <Discrete label>
label 1

$$$$

Task: Hi there! Is Ki for NC1=N[C@@H](CCc2ccc(Nc3ccc(F)cn3)cc2)CO1 [Example 3] below 0.0004 µM, do you know?
Output: label 1

Task: hey, is Ki for COc1cc(Nc2ccc(CC[C@H]3COC(N)=N3)cc2)ncn1 [Example 33] lower than 0.0004 µM or not?
Output: label 0

Task: API: query returns whether the compound falls strictly under 0.0004 µM in Ki. Query: C[S+]([O-])c1cnc(Nc2ccc(CC[C@H]3COC(N)=N3)cc2)nc1 (stereo partly drawn) [Example 75]
Output: label 0

Task: # strict comparison: is reported Ki < 0.0004 µM? input = CCCc1cnc(Nc2ccc(CC[C@H]3COC(N)=N3)cc2)nc1 [Example 49]
Output: label 0
